So I've got a bunch of compounds here, and I need their herbicidal effect rating ORYSAT values.
- System: Oryza sativa, (L.) Tebonnet
- experimental_protocol: Rice tolerance to post-transplant applications under flooded paddy conditions (Example 187), ORYSAT (Rice, Tebonnet); further: meaning of each grade not given here
- conditions_used: Rate 0.0320 kg/ha, rated 3-4 weeks after treatment

# compound, test_system, herbicidal effect rating ORYSAT
data = [
    ("Cc1ccc(OC(C)(C)C(=O)OCC(F)(F)F)c(-c2nsc3ccc(-n4c(=O)cc(C(F)(F)F)n(C)c4=O)cc23)c1", "Oryza sativa, (L.) Tebonnet", 2.0),
]

Need herbicidal effect rating ORYSAT for each of these compounds.
1. CC=CCOC(=O)C(C)(C)Oc1ccc(C)cc1-c1nsc2ccc(-n3c(=O)cc(C(F)(F)F)n(C)c3=O)cc12
2. CCS(=O)(=O)NC(=O)COc1ccc(C)cc1-c1nsc2ccc(-n3c(=O)cc(C(F)(F)F)n(C)c3=O)cc12
3. COCCCOCCCOC(=O)COc1ccc(C)cc1-c1nsc2ccc(-n3c(=O)cc(C(F)(F)F)n(C)c3=O)cc12 [Example 523]
4. Cc1ccc(OCC(N)=O)c(-c2nsc3ccc(-n4c(=O)cc(C(F)(F)F)n(C)c4=O)cc23)c1
5. Cc1ccc(C(=O)C(C)Oc2ccccc2-c2nsc3ccc(-n4c(=O)cc(C(F)(F)F)n(C)c4=O)cc23)cc1C (stereo not shown)
6. Cn1c(C(F)(F)F)cc(=O)n(-c2ccc3snc(/C=C/C(=O)c4ccccc4)c3c2)c1=O

Return:
1. 0.0
2. 4.0
3. 4.5
4. 0.0
5. 0.0
6. 0.0
